# target entity: T1, human Gelatinase-A (human, UniProt P08253 110-660, limits assumed)
# T1 sequence (looked up): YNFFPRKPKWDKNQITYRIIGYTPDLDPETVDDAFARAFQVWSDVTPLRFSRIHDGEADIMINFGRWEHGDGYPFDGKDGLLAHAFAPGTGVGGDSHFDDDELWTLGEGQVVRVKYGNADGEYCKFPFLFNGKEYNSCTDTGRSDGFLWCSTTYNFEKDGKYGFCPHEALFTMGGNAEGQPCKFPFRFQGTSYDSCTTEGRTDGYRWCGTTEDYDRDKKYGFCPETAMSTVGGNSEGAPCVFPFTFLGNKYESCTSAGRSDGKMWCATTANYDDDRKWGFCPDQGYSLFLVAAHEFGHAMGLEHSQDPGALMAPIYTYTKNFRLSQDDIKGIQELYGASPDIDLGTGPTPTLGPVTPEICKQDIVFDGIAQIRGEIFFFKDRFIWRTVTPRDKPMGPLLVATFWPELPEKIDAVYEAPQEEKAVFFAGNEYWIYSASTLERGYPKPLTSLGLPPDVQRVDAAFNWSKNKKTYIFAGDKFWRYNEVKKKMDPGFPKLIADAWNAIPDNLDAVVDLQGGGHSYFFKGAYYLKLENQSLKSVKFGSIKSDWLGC
# protocol: cell-based or functional assay
*1 amine or outer side, *2 acyl side, *3 side chain or, on linkers, in order; H or OH if unused. [ ]: non-standard residue; d: D form. The star is where a group is joined. Dnp = O=[N+]([O-])c1ccc(*)c([N+](=O)[O-])c1; C(Me) = CSC[C@H](N[*:1])C(=O)[*:2]
quantity: Selectivity v. Coll-3 (unitless)
Form entry: value (unitless) — number only.

[[record]]
binder = "Dnp-GPHPMRG-NH2 (SMILES CSCC[C@H](NC(=O)[C@@H]1CCCN1C(=O)[C@H](Cc1c[nH]cn1)NC(=O)[C@@H]1CCCN1C(=O)CNc1ccc([N+](=O)[O-])cc1[N+](=O)[O-])C(=O)N[C@@H](CCCNC(=N)N)C(=O)NCC(N)=O) [Dnp-GPHPMRG-NH2]"
quantity = "Selectivity v. Coll-3"
endpoint_value = 12

[[record]]
binder = "Dnp-PHPFRG-NH2 (SMILES N=C(N)NCCC[C@H](NC(=O)[C@H](Cc1ccccc1)NC(=O)[C@@H]1CCCN1C(=O)[C@H](Cc1c[nH]cn1)NC(=O)[C@@H]1CCCN1c1ccc([N+](=O)[O-])cc1[N+](=O)[O-])C(=O)NCC(N)=O) [Dnp-PHPFRG-NH2]"
quantity = "Selectivity v. Coll-3"
endpoint_value = 28

[[record]]
binder = "Dnp-GPRPFRG-NH2 (SMILES N=C(N)NCCC[C@H](NC(=O)[C@H](Cc1ccccc1)NC(=O)[C@@H]1CCCN1C(=O)[C@H](CCCNC(=N)N)NC(=O)[C@@H]1CCCN1C(=O)CNc1ccc([N+](=O)[O-])cc1[N+](=O)[O-])C(=O)NCC(N)=O) [Dnp-GPRPFRG-NH2]"
quantity = "Selectivity v. Coll-3"
endpoint_value = 9

[[record]]
binder = "Dnp-GPLQFRG-NH2 (SMILES CC(C)C[C@H](NC(=O)[C@@H]1CCCN1C(=O)CNc1ccc([N+](=O)[O-])cc1[N+](=O)[O-])C(=O)N[C@@H](CCC(N)=O)C(=O)N[C@@H](Cc1ccccc1)C(=O)N[C@@H](CCCNC(=N)N)C(=O)NCC(N)=O) [Dnp-GPLQFRG-NH2]"
quantity = "Selectivity v. Coll-3"
endpoint_value = 32

[[record]]
binder = "Dnp-GPKGITS-NH2 (SMILES CC[C@H](C)[C@H](NC(=O)CNC(=O)[C@H](CCCCN)NC(=O)[C@@H]1CCCN1C(=O)CNc1ccc([N+](=O)[O-])cc1[N+](=O)[O-])C(=O)N[C@H](C(=O)N[C@@H](CO)C(N)=O)[C@@H](C)O) [Dnp-GPKGITS-NH2]"
quantity = "Selectivity v. Coll-3"
endpoint_value = 6


[ask] Report Selectivity v. Coll-3, nothing else, for this binder: Dnp-GPLGFRV[C(Me)]-NH2 (SMILES CSC[C@H](NC(=O)[C@@H](NC(=O)[C@H](CCCNC(=N)N)NC(=O)[C@H](Cc1ccccc1)NC(=O)CNC(=O)[C@H](CC(C)C)NC(=O)[C@@H]1CCCN1C(=O)CNc1ccc([N+](=O)[O-])cc1[N+](=O)[O-])C(C)C)C(N)=O) [Dnp-GPLGFRVC(Me)-NH2]
[reply] 15

[ask] Specify measured Selectivity v. Coll-3 for Dnp-GPFGLKG-NH2 (SMILES CC(C)C[C@H](NC(=O)CNC(=O)[C@H](Cc1ccccc1)NC(=O)[C@@H]1CCCN1C(=O)CNc1ccc([N+](=O)[O-])cc1[N+](=O)[O-])C(=O)N[C@@H](CCCCN)C(=O)NCC(N)=O) [Dnp-GPFGLKG-NH2] .
[reply] 26
